pIC50 overview
TEST_SYSTEM: GABA B receptor (Rattus norvegicus, UniProt O88871+Q9Z0U4)
Sequence (Q9Z0U4 whole entry): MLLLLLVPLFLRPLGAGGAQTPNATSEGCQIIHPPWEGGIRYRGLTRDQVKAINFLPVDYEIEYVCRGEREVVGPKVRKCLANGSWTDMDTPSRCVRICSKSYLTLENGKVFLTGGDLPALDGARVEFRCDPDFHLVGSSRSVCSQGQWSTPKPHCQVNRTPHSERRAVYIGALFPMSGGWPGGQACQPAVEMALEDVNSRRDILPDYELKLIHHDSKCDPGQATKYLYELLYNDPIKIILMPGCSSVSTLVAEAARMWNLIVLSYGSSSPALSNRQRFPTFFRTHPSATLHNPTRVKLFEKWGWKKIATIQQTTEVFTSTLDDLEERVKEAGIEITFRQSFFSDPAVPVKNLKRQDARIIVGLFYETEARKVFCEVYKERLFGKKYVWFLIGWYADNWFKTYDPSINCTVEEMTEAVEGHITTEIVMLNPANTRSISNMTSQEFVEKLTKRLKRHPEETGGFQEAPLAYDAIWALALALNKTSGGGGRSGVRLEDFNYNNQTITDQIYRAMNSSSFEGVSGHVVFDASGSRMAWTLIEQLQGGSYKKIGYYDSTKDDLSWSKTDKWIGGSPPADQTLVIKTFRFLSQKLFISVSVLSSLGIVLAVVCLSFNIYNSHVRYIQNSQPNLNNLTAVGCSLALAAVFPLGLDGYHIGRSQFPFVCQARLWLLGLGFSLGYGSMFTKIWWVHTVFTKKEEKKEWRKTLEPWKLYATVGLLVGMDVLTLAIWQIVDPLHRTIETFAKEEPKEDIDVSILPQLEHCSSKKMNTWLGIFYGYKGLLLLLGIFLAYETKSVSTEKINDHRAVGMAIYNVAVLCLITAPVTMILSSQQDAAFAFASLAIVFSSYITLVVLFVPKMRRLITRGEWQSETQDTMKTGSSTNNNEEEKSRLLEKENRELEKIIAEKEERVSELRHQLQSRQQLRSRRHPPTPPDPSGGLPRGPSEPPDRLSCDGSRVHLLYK
Sequence (O88871 whole entry): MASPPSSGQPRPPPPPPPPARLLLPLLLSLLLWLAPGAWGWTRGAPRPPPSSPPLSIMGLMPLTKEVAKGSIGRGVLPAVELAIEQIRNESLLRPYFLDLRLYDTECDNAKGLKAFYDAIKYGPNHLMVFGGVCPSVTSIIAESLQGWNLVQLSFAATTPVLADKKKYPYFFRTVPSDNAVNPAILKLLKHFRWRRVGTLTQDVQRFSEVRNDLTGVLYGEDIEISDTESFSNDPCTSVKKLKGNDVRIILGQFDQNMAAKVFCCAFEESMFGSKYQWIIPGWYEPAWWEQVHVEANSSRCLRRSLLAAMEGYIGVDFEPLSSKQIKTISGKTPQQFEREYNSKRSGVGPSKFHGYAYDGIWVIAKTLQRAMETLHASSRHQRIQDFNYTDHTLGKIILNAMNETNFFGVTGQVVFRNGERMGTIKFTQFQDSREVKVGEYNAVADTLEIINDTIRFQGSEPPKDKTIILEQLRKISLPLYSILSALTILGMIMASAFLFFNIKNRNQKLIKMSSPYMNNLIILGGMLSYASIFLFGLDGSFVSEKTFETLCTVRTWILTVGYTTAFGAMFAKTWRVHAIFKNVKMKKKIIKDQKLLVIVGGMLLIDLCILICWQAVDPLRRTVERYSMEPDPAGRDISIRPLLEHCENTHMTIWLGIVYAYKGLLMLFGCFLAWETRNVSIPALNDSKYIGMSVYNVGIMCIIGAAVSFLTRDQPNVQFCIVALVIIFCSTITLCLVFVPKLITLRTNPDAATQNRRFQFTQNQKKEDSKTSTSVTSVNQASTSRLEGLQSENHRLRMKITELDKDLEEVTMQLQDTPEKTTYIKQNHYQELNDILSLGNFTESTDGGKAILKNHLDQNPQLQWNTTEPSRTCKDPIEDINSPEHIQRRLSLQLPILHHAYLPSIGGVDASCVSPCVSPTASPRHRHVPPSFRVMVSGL
PROTOCOL_SUMMARY: Inhibition of [3H]CGP-27492 binding to Gamma-aminobutyric acid type B receptor of rat cortex
pIC50: −log10 of the molar value.
TEST_READOUT: pIC50

# COMPOUND, OBSERVED_VALUE
measured = [
    ("NCC(O)CP(=O)(O)C(F)F (centres undefined)", 6.67),
    ("CP(=O)(O)C[C@H](O)CN", 6.82),
    ("CP(=O)(O)C(O)CCN (centres undefined)", 5.94),
    ("CP(=O)(O)C(CCN)C(F)(F)F (centres undefined)", 4.17),
    ("CCC(CCN)P(C)(=O)O (centres undefined)", 4.73),
    ("NCCCP(=O)(O)O", 5.17),
    ("CP(=O)(O)CC(O)CN (centres undefined)", 7.11),
    ("CP(=O)(O)/C=C\\CN", 4.78),
    ("CP(=O)(O)/C=C/CN", 6.18),
    ("CP(=O)(O)C[C@@H](O)CN", 7.35),
    ("NCCCP(=O)(O)C(F)F", 7.05),
    ("NCCCP(=O)(O)CO", 5.98),
    ("CC(CCN)P(C)(=O)O (centres undefined)", 6.85),
    ("NCC(O)(C[PH](=O)O)c1ccc(Cl)cc1 (centres undefined)", 7.19),
]
